# method-summary: physchem
# condition-label: buffer, pH 3
Peptide text beside a SMILES is read from it.
quantity: half-life

Task item: Item under review: COC(=O)[C@H](Cc1ccccc1)NC(=O)[C@@H](N)CC(=O)O [aspartame] (H-Asp-Phe-OMe) . Reported half-life?
Reply: ~30 h
